assay: Lipophilicity, log D of compound at pH 7.4 by chromatographic method; assay type: physicochemical; details: buffer
quantity: chromatographic logD

CC1(c2ccc(C#N)cc2)NC(=O)N(CC(=O)c2ccc(Cl)s2)C1=O (racemic)	4.85
CC1(c2ccc(-c3nnn[nH]3)cc2)NC(=O)N(CC(=O)c2ccc(F)cc2F)C1=O (racemic)	1.85
CC1(c2ccc(C#N)cc2)NC(=O)N(CC(=O)c2ccc(F)cc2O)C1=O (racemic)	4.56
CC1(c2ccc3c(c2)NC(=O)CO3)NC(=O)N(CC(=O)c2ccc(F)cc2F)C1=O (racemic)	3.38
CC1(c2ccc(S(N)(=O)=O)cc2)NC(=O)N(CC(=O)c2nc3ccccc3s2)C1=O (racemic)	3.78
COc1cccc(C(=O)CN2C(=O)NC(C)(c3ccc(S(N)(=O)=O)cc3)C2=O)c1 (racemic)	3
CC1(c2ccc(S(N)(=O)=O)cc2)NC(=O)N(CC(=O)c2ccc3ccccc3c2)C1=O (racemic)	3.93
CC1(c2ccc(S(N)(=O)=O)cc2)NC(=O)N(CC(=O)c2cccnc2)C1=O (racemic)	3.48
